Parameter %Inh: see the listing below.
Test system: INSR;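 also: KINOMEscan kinase panel screen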
test context: concentration: 1 μM,replicates: in singlicate; n = 1
Give the value, in units of %, as a plain number.

Worked examples, 6 compounds total:
CSc1nccc(-c2c(-c3ccc(F)cc3)ncn2CCCN2CCOCC2)n1.Cl [SB-217146] : 2
O=C(Nc1cccc(C(F)(F)F)c1)c1cccc(Oc2ccc3nccn3n2)c1 : 2
Cn1ccc2ncnc(Oc3ccc(NC(=O)Nc4cnn(C(C)(C)C)c4)c(Cl)c3)c21 : 11
COc1cc2c(Nc3ccc(NC(=O)c4ccccc4)cc3)ncnc2cc1OCCCN1CCOCC1 [GSK301329] : 0
NC(=O)Nc1sc(-c2ccc(F)cc2)cc1C(N)=O [GW789449] : 37
CS(=O)(=O)c1cccc(CNc2nc(Nc3ccc4c(c3)[C@@H]3C[C@@H]4CNC3=O)ncc2C(F)(F)F)c1 : 94.5

Which value of %Inh has been reported for "Cc1ccc(C(=O)Nc2ccc(Oc3ccc4nc(NC(=O)C5CC5)cn4c3)c(F)c2)c(=O)n1-c1ccccc1" in the records?
0

Need %Inh, item Cl.Cl.NC[C@H](CC1CCCCC1)NC(=O)c1ccc(-c2ccnc3[nH]ccc23)s1 [GSK1581428]
5

Consider the compound shown here: COc1cccc(OC)c1C(=O)Nc1cccc(-c2nn3ccccc3c2-c2ccnc(Nc3cccc(F)c3)n2)c1 [GSK361065] What is its recorded %Inh?
0

Name the recorded %Inh for "O=C(NOCC1CC1)c1cc(Br)c(F)c(F)c1Nc1ccc(I)cc1Cl" .
0

Please give the measured %Inh for this compound: Cc1ccc2c(-c3ccnc(Nc4ccc(C(F)(F)F)cc4)n3)cnn2n1 [GW819776]
14

Consider the compound shown here: "Cn1ccc2ncnc(Oc3ccc(NC(=O)Nc4cccc(C(F)(F)F)c4)c(F)c3)c21" What is its recorded %Inh?
2

For CN(c1ccc2c(c1)nc(NCc1ccc(F)cc1)n2C)c1ccnc(Nc2ccc(CS(C)(=O)=O)cc2)n1.Cl [GW813244] , what is its reported %Inh?
27

What %Inh value was documented for this compound, "O=C(Nc1ccc(Oc2ccc3nc(NC(=O)C4CC4)cn3n2)c(F)c1)c1cccn(-c2ccccc2)c1=O" ?
0

Item under review: Cc1cccc2c(-c3ccncc3)c(-c3ccc(F)cc3)nn12.Cl [GW461487] . Reported %Inh?
0

Field request: %Inh | item: Cl.c1ccc(Oc2ccc(Nc3ccnc4cc(-c5ccc(CN6CCNCC6)o5)ccc34)cc2)nc1 [GW567142]
20

Which %Inh is listed for "Cn1ccc2ncnc(Oc3ccc(NC(=O)Nc4cccc(C(F)(F)F)c4)c(Cl)c3)c21" ?
16

Ref: paper PMC5540273
